Biological target: Probable G-protein coupled receptor 34 (Mus musculus, UniProt Q9R1K6)
Sequence (Q9R1K6 whole entry, the tested form may be a part): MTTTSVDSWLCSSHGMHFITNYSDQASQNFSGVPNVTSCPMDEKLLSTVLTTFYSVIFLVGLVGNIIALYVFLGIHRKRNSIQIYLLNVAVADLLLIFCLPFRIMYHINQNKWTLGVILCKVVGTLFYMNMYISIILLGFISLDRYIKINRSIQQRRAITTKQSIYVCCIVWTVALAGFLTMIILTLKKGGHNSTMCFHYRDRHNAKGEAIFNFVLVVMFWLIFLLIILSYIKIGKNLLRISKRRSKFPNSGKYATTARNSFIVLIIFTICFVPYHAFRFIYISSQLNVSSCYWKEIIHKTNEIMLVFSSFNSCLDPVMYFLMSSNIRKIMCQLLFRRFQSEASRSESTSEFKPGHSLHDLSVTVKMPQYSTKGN
Assay: Agonist activity at mouse GPR34 expressed in HEK293 cells co-transfected with AP-TGFalpha/chimeric Galphaq/i1 assessed as induction of ectodomain shedding of membrane bound AP-TGFalpha after 1 hr
pEC50: −log10 of the molar value.
Measured attribute: pEC50

Here is how some molecules turned out for pEC50.
INSERT INTO measurements (chemical_string, system, measured_attribute, measurement) VALUES
  ('CCCCCCCCCCCOc1ccccc1CCC(=O)OCCCOP(=O)(O)OC[C@H](N)C(=O)O', 'Probable G-protein coupled receptor 34 (Mus musculus, UniProt Q9R1K6)', 'pEC50', 5.80),
  ('N[C@@H](COP(=O)(O)OCCCOC(=O)CCc1ccccc1OCc1cccc(Oc2ccc(I)cc2)c1)C(=O)O', 'Probable G-protein coupled receptor 34 (Mus musculus, UniProt Q9R1K6)', 'pEC50', 7.00),
  ('CCc1ccc(Oc2cccc(COc3ccccc3CCC(=O)OCCCOP(=O)(O)OC[C@H](N)C(=O)O)c2)cc1', 'Probable G-protein coupled receptor 34 (Mus musculus, UniProt Q9R1K6)', 'pEC50', 6.74),
  ('N[C@@H](COP(=O)(O)OCCCOC(=O)CCc1ccccc1OCc1cccc(Oc2ccccc2Cl)c1)C(=O)O', 'Probable G-protein coupled receptor 34 (Mus musculus, UniProt Q9R1K6)', 'pEC50', 5.92),
  ('N[C@@H](COP(=O)(O)O[C@@H]1CCCO[C@@H]1COC(=O)CCc1ccccc1OCc1cccc(Oc2ccccc2)c1)C(=O)O', 'Probable G-protein coupled receptor 34 (Mus musculus, UniProt Q9R1K6)', 'pEC50', 6.74),
  ('N[C@@H](COP(=O)(O)OCCCOC(=O)CCc1ccccc1OCc1cccc(Oc2ccc(Cl)c(Cl)c2)c1)C(=O)O', 'Probable G-protein coupled receptor 34 (Mus musculus, UniProt Q9R1K6)', 'pEC50', 6.96);

A: CC(C)(C)c1ccc(-c2ccc(Oc3cccc(COc4ccccc4CCC(=O)OCCCOP(=O)(O)OC[C@H](N)C(=O)O)c3)cc2)cc1
B: N[C@@H](COP(=O)(O)OCCCOC(=O)CCc1ccccc1OCc1cccc(Oc2ccc(Br)cc2)c1)C(=O)O
C: N[C@@H](COP(=O)(O)OCCCOC(=O)CCc1ccccc1OCCCCCCOc1ccccc1)C(=O)O
D: COc1ccc(Oc2cccc(COc3ccccc3CCC(=O)OCCCOP(=O)(O)OC[C@H](N)C(=O)O)c2)cc1
Input line: List these items ordered by pEC50, big to small. Rank the items, then write their labels in that order.
Output line: A, B, D, C
(A: 8.10, B: 7.09, D: 6.59, C: 5.92)

---

Target: Probable G-protein coupled receptor 34 (Homo sapiens, UniProt Q9UPC5)
Test: Intrinsic activity at human GPR34 expressed in HEK293 cells co-transfected with AP-TGFalpha/chimeric Galphaq/i1 assessed as induction of AP-TGFalpha release after 1 hr relative to O-(Hydroxy(((2R,3R)-2-(((3-(2-((3-phenoxybenzyl)oxy)phenyl)- propanoyl)oxy)methyl)tetrahydro-2H-pyran-3-yl)oxy)phosphoryl)- L-serine
Type: cell-based
Measured attribute: Intrinsic activity

INSERT INTO assay_data (chemical_string, measured_attribute, measurement) VALUES
  ('Cc1ccccc1Oc1cccc(COc2ccccc2CCC(=O)OCCCOP(=O)(O)OC[C@H](N)C(=O)O)c1', 'Intrinsic activity', 1.2),
  ('N[C@@H](COP(=O)(O)OCCCOC(=O)CCc1ccccc1OCc1cccc(Oc2ccc(-c3ccccc3)cc2)c1)C(=O)O', 'Intrinsic activity', 2.1),
  ('Cc1cccc(Oc2cccc(COc3ccccc3CCC(=O)OCCCOP(=O)(O)OC[C@H](N)C(=O)O)c2)c1', 'Intrinsic activity', 1.2),
  ('N[C@@H](COP(=O)(O)O[C@@H]1CCCO[C@@H]1COC(=O)CCc1ccccc1OCc1cccc(Oc2ccccc2)c1)C(=O)O', 'Intrinsic activity', 1),
  ('CC(C)(C)c1cccc(-c2ccc(Oc3cccc(COc4ccccc4CCC(=O)OCCCOP(=O)(O)OC[C@H](N)C(=O)O)c3)cc2)c1', 'Intrinsic activity', 8.6);

I: Cc1ccc(Oc2cccc(COc3ccccc3CCC(=O)OCCCOP(=O)(O)OC[C@H](N)C(=O)O)c2)cc1
II: CC(C)(C)c1ccc(Oc2cccc(COc3ccccc3CCC(=O)OCCCOP(=O)(O)OC[C@H](N)C(=O)O)c2)cc1
III: N[C@@H](COP(=O)(O)OCCCOC(=O)CCc1ccccc1OCc1cccc(Oc2ccccc2)c1)C(=O)O
IV: N[C@@H](COP(=O)(O)OCCCOC(=O)CCc1ccccc1OCc1cccc(Oc2ccc(-c3ccc(-c4ccccc4)cc3)cc2)c1)C(=O)O
Input line: Highest Intrinsic activity first, then in falling order down to the smallest. Please list each label once, in the requested order.
Output line: I, IV, III, II

---

Target: Probable G-protein coupled receptor 34 (Mus musculus) (UniProt Q9R1K6)
Sequence (Q9R1K6 whole entry, the tested form may be a part): as above
Assay: Intrinsic activity at mouse GPR34 expressed in HEK293 cells co-transfected with AP-TGFalpha/chimeric […] assessed as induction of ectodomain shedding of membrane bound AP-TGFalpha after 1 hr relative to O-(Hydroxy(((2R,3R)-2-(((3-(2-((3-phenoxybenzyl)oxy)phenyl)- propanoyl)oxy)methyl)tetrahydro-2H-pyran-3-yl)oxy)phosphoryl)- L-serine
Assay type: cell-based
Measured attribute: Intrinsic activity

INSERT INTO results (chemical_string, measurement) VALUES
  ('N[C@@H](COP(=O)(O)O[C@@H]1CCCO[C@@H]1COC(=O)CCc1ccccc1OCc1cccc(Oc2ccccc2)c1)C(=O)O', 1);

1: N[C@@H](COP(=O)(O)OCCCOC(=O)CCc1ccccc1OCc1cccc(Cc2ccccc2)c1)C(=O)O
2: N[C@@H](COP(=O)(O)OCCCOC(=O)CCc1ccccc1OCc1cccc(Oc2ccc(I)cc2)c1)C(=O)O
3: Cc1cccc(Oc2cccc(COc3ccccc3CCC(=O)OCCCOP(=O)(O)OC[C@H](N)C(=O)O)c2)c1
Input line: With regard to Intrinsic activity, arrange the entries in ascending order, please. State the ranking by listing the labels in the requested order.
Output line: 1, 3, 2
(1: 0.077, 3: 0.29, 2: 0.82)

---

Molecular target: Probable G-protein coupled receptor 34 (Homo sapiens, UniProt Q9UPC5)
Assay: Agonist activity at human GPR34 expressed in HEK293 cells co-transfected with AP-TGFalpha/chimeric Galphaq/i1 assessed as induction of AP-TGFalpha release after 1 hr
Format: cell-based
Conditions: read-out: EC50
Measured attribute: EC50 (nM)

INSERT INTO results (chemical_string, system, measurement) VALUES
  ('N[C@@H](COP(=O)(O)O[C@@H]1CCCO[C@@H]1COC(=O)CCc1ccccc1OCc1cccc(Oc2ccccc2)c1)C(=O)O', 'Probable G-protein coupled receptor 34 (Homo sapiens, UniProt Q9UPC5)', 150);

a: Cc1cccc(Oc2cccc(COc3ccccc3CCC(=O)OCCCOP(=O)(O)OC[C@H](N)C(=O)O)c2)c1
b: N[C@@H](COP(=O)(O)OCCCOC(=O)CCc1ccccc1OCc1cccc(Oc2ccc(-c3ccc(-c4ccccc4)cc3)cc2)c1)C(=O)O
c: CC(C)(C)c1cccc(-c2ccc(Oc3cccc(COc4ccccc4CCC(=O)OCCCOP(=O)(O)OC[C@H](N)C(=O)O)c3)cc2)c1
d: Cc1ccc(Oc2cccc(COc3ccccc3CCC(=O)OCCCOP(=O)(O)OC[C@H](N)C(=O)O)c2)cc1
Input line: # desc sort on EC50 across 4 molecules Give the labels in the order requested.
Output line: a, b, d, c
(a: 230 nM, b: 41 nM, d: 27 nM, c: 15 nM)

---

Target: UniProt Q9R1K6
Test: Intrinsic activity at mouse GPR34 expressed in HEK293 cells co-transfected with AP-TGFalpha/chimeric […] assessed as induction of ectodomain shedding of membrane bound AP-TGFalpha after 1 hr relative to O-(Hydroxy(((2R,3R)-2-(((3-(2-((3-phenoxybenzyl)oxy)phenyl)- propanoyl)oxy)methyl)tetrahydro-2H-pyran-3-yl)oxy)phosphoryl)- L-serine
Assay type: cell-based
Measured attribute: Intrinsic activity

a: Cc1ccccc1Oc1cccc(COc2ccccc2CCC(=O)OCCCOP(=O)(O)OC[C@H](N)C(=O)O)c1
b: N[C@@H](COP(=O)(O)OCCCOC(=O)CCc1ccccc1OCc1cccc(OC2CCCCC2)c1)C(=O)O
c: Cc1ccc(Oc2cccc(COc3ccccc3CCC(=O)OCCCOP(=O)(O)OC[C@H](N)C(=O)O)c2)cc1
d: N[C@@H](COP(=O)(O)OCCCOC(=O)CCc1ccccc1OCCCCOc1ccccc1)C(=O)O
Input line: Consider the compounds listed above. Rank them by Intrinsic activity in ascending numerical order. Answer by naming the labels in the order asked.
Output line: d, b, a, c

---

Biological target: Probable G-protein coupled receptor 34 (Mus musculus)
Assay: Agonist activity at mouse GPR34 expressed in HEK293 cells co-transfected with AP-TGFalpha/chimeric Galphaq/i1 assessed as induction of ectodomain shedding of membrane bound AP-TGFalpha after 1 hr
Measured attribute: EC50

Input line: Query (compound): CCCCCCOCC#CCOc1ccccc1CCC(=O)OCCCOP(=O)(O)OC[C@H](N)C(=O)O ; field requested: EC50
Output line: > 3 µM

Input line: Also N[C@@H](COP(=O)(O)OCCCOC(=O)CCc1ccccc1OCc1cccc(-c2ccccc2)c1)C(=O)O ?
Output line: > 3 µM

Input line: Another compound to look at: CCCCCCCC/C=C\CCCCCCCC(=O)OCCCOP(=O)(O)OC[C@H](N)C(=O)O
Output line: > 3 µM
